Data origin, for the record: the supplement of paper PMC6522484

Tested on: SW480
Assay: TCF/Wnt firefly luciferase reporter signal relative to plate median (fraction of plate median); higher = higher Wnt reporter signal
Conditions: 5 µM; treatment time 24 h; reporter: 7TFP
# reported TCF/Wnt firefly luciferase reporter signal; entries follow
QUANTITY NAME: TCF/Wnt firefly luciferase reporter signal

| SMILES | OBSERVED RESULT |
| --- | --- |
| S=P(N1CC1)(N1CC1)N1CC1 | 0.93 |
| C=C(NC(=O)C(=C)NC(=O)c1csc(C2=N[C@@H]3c4csc(n4)[C@H]4NC(=O)c5csc(n5)[C@H]([C@](C)(O)[C@@H](C)O)NC(=O)[C@H]5CSC(=N5)/C(=C/C)NC(=O)[C@H]([C@@H](C)O)NC(=O)c5csc(n5)[C@]3(CC2)NC(=O)[C@H](C)NC(=O)C(=C)NC(=O)[C@H](C)NC(=O)[C@H]([C@@H](C)CC)N[C@@H]2C=Cc3c([C@H](C)O)cc(nc3[C@H]2O)C(=O)O[C@@H]4C)n1)C(N)=O | 1.05 |
| COc1ccc(-c2oc3ccccc3c(=O)c2O)cc1OC | 1.18 |
| COc1ccc(-c2coc3c(O)c(OC)ccc3c2=O)cc1 | 1.01 |
| COc1ccc([C@@H]2CC(=O)c3c(O)cc(O)cc3O2)cc1O | 0.982 |
| Nc1nc(F)nc2c1ncn2[C@@H]1O[C@H](COP(=O)(O)O)[C@@H](O)[C@@H]1O | 1.04 |

----------
System: SW480
Test: cell viability (CellTiter-Glo) relative to plate median (fraction of plate median); higher = more viable cells
Settings: 5 µM; treatment time 24 h; reporter: 7TFP
QUANTITY NAME: cell viability

| MOLECULE | OBSERVED RESULT |
| --- | --- |
| CCN(CC)CCOC(=O)C(c1ccccc1)C1CCCCC1 (centres undefined) | 0.978 |
| COc1cc2c(cc1OC)C(=O)C(CC1CCN(Cc3ccccc3)CC1)C2 (centres undefined) | 1.06 |
| CCC(=O)O[C@H]1[C@H](O[C@@H]2[C@@H](C)[C@H](O[C@H]3C[C@@](C)(OC)[C@@H](O)[C@H](C)O3)[C@@H](C)C(=O)O[C@H](CC)[C@@](C)(O)[C@H](O)[C@@H](C)C(=O)[C@H](C)C[C@@]2(C)O)O[C@H](C)C[C@@H]1N(C)C | 1.01 |
| CCSC(=N)N | 1 |
| CC12CC3CC(C)(C1)CC(N)(C3)C2 | 1.02 |
| O=C1NCCN(C(=O)[C@H](Cc2ccccc2)NC(=O)[C@@H]2CCCN2)C1=O | 1.02 |
| CCOC(=O)c1ccc(O)cc1 | 1 |
| CCC(C)C(=O)OC1[C@@H]2CC3=C4CC(=O)O[C@@H](c5ccoc5)[C@]4(C)CCC3[C@@](C)(C2=O)[C@@H](CC(=O)OC)C1(C)C (some centres undefined) | 1.18 |
| CC(=O)OCC(=O)[C@H]1CC[C@H]2[C@@H]3CCC4=CC(=O)CC[C@]4(C)[C@H]3CC[C@]12C | 0.974 |

----------
Test system: HCT116
Assay: cell viability (CellTiter-Glo) relative to plate median (fraction of plate median); higher = more viable cells
Conditions: 10 µM; treatment time 24 h; reporter: TCF4/Wnt

| COMPOUND | cell viability |
| --- | --- |
| Cc1cc(CN2CCN(c3c(Br)cnc4nc(-c5ccc(N6CCN(C)CC6)cc5)[nH]c34)CC2)no1 | 1.04 |
| CC(C)(C)c1cc(/C=C(\C#N)C(N)=S)cc(C(C)(C)C)c1O [Tyrphostin AG 879 (AG 879)] | 0.979 |
| COc1ccc(-c2cc3c(C)nc(N)nc3n([C@H]3CC[C@H](OCCO)CC3)c2=O)cn1 | 0.68 |
| COc1ccc2c3n(c(=NC(=O)c4cccnc4)nc2c1OC)CCN3 | 0.958 |
| C=CC(=O)Nc1cccc(Oc2nc(Nc3ccc(N4CCN(C)CC4)cc3)ncc2Cl)c1 | 0.894 |
| CN1CCN(CCOc2cc(OC3CCOCC3)c3c(Nc4c(Cl)ccc5c4OCO5)ncnc3c2)CC1 [Saracatinib (AZD0530)] | 0.968 |
| Oc1c2ccccc2c2c3c(cccc13)N=N2 | 1.12 |
| Cc1cc(Nc2nc(N[C@@H](C)c3ccc(F)cc3)c(C#N)cc2F)n[nH]1 | 0.831 |
| N#CCNC(=O)c1ccc(-c2ccnc(Nc3ccc(N4CCOCC4)cc3)n2)cc1 | 1.25 |
| CNC(=O)c1cc(COc2nnc(Nc3ccc(Cl)cc3)c3ccoc23)ccn1 [Telatinib (BAY 57-9352)] | 1.05 |
| O=C1NC(=O)C(=Cc2ccc(-c3ccc(F)cc3)o2)S1 (stereo in doubt) | 1.09 |
| CN1CCN(c2cccc(Nc3nc4c(-c5ccc(S(C)(=O)=O)cc5)cccn4n3)c2)CC1 | 0.871 |
| S=C(NCc1ccc2c(c1)OCO2)N1CCN(c2ncnc3c2oc2ccccc23)CC1 [Amuvatinib (MP-470)] | 1.15 |
| O=C1NCCc2[nH]c(-c3ccncc3)cc21 | 0.665 |
| Nc1nc(Nc2ccc(S(N)(=O)=O)cc2)nn1C(=O)c1c(F)cccc1F | 0.71 |
| C#Cc1cccc(Nc2ncnc3cc(OCCOC)c(OCCO)cc23)c1 | 1.22 |
| CNC(=O)c1ccc(-c2cnc3ncc(Cc4ccc5ncccc5c4)n3n2)cc1F | 1.22 |
